# target_or_test_system: hSTING REF allele (Homo sapiens, UniProt Q86WV6)
# Construct: DNA encoding amino acids 140-379 (amino acid numbering corresponding to Swiss Prot Q86WV6); 6xHIS (N, cleaved yes); SUMO (N, cleaved yes); made in house; host or cells: Rosetta2 (DE3) E. coli
# Sequence (Q86WV6 140-379): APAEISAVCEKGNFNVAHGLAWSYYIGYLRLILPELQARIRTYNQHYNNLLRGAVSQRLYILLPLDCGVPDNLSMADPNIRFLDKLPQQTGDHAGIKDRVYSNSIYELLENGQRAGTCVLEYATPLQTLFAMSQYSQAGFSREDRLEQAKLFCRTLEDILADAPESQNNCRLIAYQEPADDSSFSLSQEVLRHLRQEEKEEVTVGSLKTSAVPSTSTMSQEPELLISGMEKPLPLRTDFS
# assay_info: Differential scanning fluorometry (DSF) binding to purified STING AA140-379, REF allele
# assay_context: DSF; ligand 1 mM; 1 mg/ml STING AA140-379
Recorded hSTING Tm Shift REF values for a group of compounds are listed next.
Use °C as the unit, but write only the number.

Sample records with hSTING Tm Shift REF:
| compound | obs_value |
| --- | --- |
| Nc1ncnc2c1ncn2[C@@H]1O[C@@H]2CO[P@@](=O)(S)O[C@H]3[C@H]4OC[C@]3(CO[P@@](=O)(S)O[C@@H]1[C@@H]2O)O[C@H]4n1cnc2c(N)ncnc21 [Compound 10a] | 7.5 |
| Nc1nc2c(ncn2[C@@H]2O[C@@H]3CO[P@@](=O)(S)O[C@H]4[C@H]5OC[C@]4(CO[P@@](=O)(S)O[C@H]3[C@H]2O)O[C@H]5n2cnc3c(N)ncnc32)c(=O)[nH]1 [Compound 45a] | 13.1 |

For the next question, use this compound.
Specify hSTING Tm Shift REF for Nc1ncnc2c1ncn2[C@@H]1O[C@@H]2CO[P@@](=O)(S)O[C@H]3[C@H]4OC[C@]3(CO[P@](=O)(S)O[C@@H]1[C@@H]2O)O[C@H]4n1cnc2c(N)ncnc21 [Compound 10c] , system hSTING REF allele (Homo sapiens, UniProt Q86WV6). 5.0

###

Recorded hSTING Tm Shift WT values for a group of molecules are listed next.
# target_or_test_system: hSTING WT (Homo sapiens, UniProt Q86WV6, H232R)
# Construct: DNA encoding amino acids 140-379 (amino acid numbering corresponding to Swiss Prot Q86WV6); 6xHIS (N, cleaved yes); SUMO (N, cleaved yes); made in house; host or cells: Rosetta2 (DE3) E. coli
# Sequence (Q86WV6 140-379 H232R limits assumed): as the sequence (Q86WV6 140-379) above, with H93R counted along it
# assay_info: Differential scanning fluorometry (DSF) binding to purified STING AA140-379, wild type
# assay_context: DSF; ligand 1 mM; 1 mg/ml STING AA140-379
Use °C as the unit, but write only the number.

Sample records with hSTING Tm Shift WT:
| molecule | hSTING Tm Shift WT [°C] |
| --- | --- |
| O=C(Nc1ncnc2c1ncn2[C@@H]1O[C@@]23CO[C@@H]1[C@@H]2O[P@@](=O)(S)OC[C@@H]1C[C@@H](O[P@](=O)(S)OC3)[C@H](n2cnc3c(NC(=O)c4ccccc4)ncnc32)O1)c1ccccc1 [Compound 22b] | 4.6 |
| Nc1ncnc2c1ncn2[C@@H]1O[C@@H]2CO[P@@](=O)(S)O[C@H]3[C@H]4OC[C@]3(CO[P@](=O)(S)O[C@@H]1[C@@H]2O)O[C@H]4n1cnc2c(N)ncnc21 [Compound 10c] | 6.5 |
| Nc1nc2c(ncn2[C@@H]2O[C@@H]3CO[P@@](=O)(S)O[C@H]4[C@H]5OC[C@]4(CO[P@@](=O)(S)O[C@H]3[C@H]2O)O[C@H]5n2cnc3c(N)ncnc32)c(=O)[nH]1 [Compound 45a] | 20.3 |
| O=C(Nc1ncnc2c1ncn2[C@@H]1O[C@@]23CO[C@@H]1[C@@H]2O[P@](=O)(S)OC[C@@H]1C[C@@H](O[P@](=O)(S)OC3)[C@H](n2cnc3c(NC(=O)c4ccccc4)ncnc32)O1)c1ccccc1 [Compound 22a] | 0.6 |

For the next question, use this molecule.
Quote hSTING Tm Shift WT reported for CC(C)(C)[Si](C)(C)O[C@H]1[C@H]2O[P@](=O)(S)OC[C@@]34CO[C@@H]([C@H](n5cnc6c(N)ncnc65)O3)[C@@H]4O[P@@](=O)(S)OC[C@H]1O[C@H]2n1cnc2c(N)ncnc21 [Compound 11b] please. −1.8

###

# target_or_test_system: hSTING HAQ allele (Homo sapiens, UniProt Q86WV6, G230A/H232R/R293Q)
# Construct: DNA encoding amino acids 140-379 (amino acid numbering corresponding to Swiss Prot Q86WV6); 6xHIS (N, cleaved yes); SUMO (N, cleaved yes); made in house; host or cells: Rosetta2 (DE3) E. coli
# Sequence (Q86WV6 140-379 G230A/H232R/R293Q limits assumed): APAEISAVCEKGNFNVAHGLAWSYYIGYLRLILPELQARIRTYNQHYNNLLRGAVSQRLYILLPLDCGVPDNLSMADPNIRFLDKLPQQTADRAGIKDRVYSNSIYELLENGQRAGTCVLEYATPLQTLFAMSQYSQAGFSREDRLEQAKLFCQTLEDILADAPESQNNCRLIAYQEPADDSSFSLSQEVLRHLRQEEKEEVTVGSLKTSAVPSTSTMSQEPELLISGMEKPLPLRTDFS
# assay_info: Differential scanning fluorometry (DSF) binding to purified STING AA140-379, HAQ allele
# assay_context: ligand 1 mM, 1 mg/ml STING AA140-379
reported_metric: hSTING Tm Shift HAQ (°C)
Use °C as the unit, but write only the number.

Sample records with hSTING Tm Shift HAQ:
| compound | hSTING Tm Shift HAQ [°C] |
| --- | --- |
| Nc1ncnc2c1ncn2[C@@H]1O[C@@]23CO[C@@H]1[C@@H]2O[P@](=O)(S)OC[C@@H]1C[C@@H](O[P@](=O)(S)OC3)[C@H](n2cnc3c(N)ncnc32)O1 [Compound 21a] | 16.2 |
| O=C(Nc1ncnc2c1ncn2[C@@H]1O[C@@]23CO[C@@H]1[C@@H]2O[P@](=O)(S)OC[C@@H]1C[C@@H](O[P@](=O)(S)OC3)[C@H](n2cnc3c(NC(=O)c4ccccc4)ncnc32)O1)c1ccccc1 [Compound 22a] | 2.2 |
| Nc1ncnc2c1ncn2[C@@H]1O[C@@H]2CO[P@](=O)(S)O[C@H]3[C@H]4OC[C@]3(CO[P@@](=O)(S)O[C@@H]1[C@@H]2O)O[C@H]4n1cnc2c(N)ncnc21 [Compound 10b] | 13.9 |

Specify hSTING Tm Shift HAQ for Nc1ncnc2c1ncn2[C@@H]1O[C@@H]2CO[P@@](=O)(S)O[C@H]3[C@H]4OC[C@]3(CO[P@@](=O)(S)O[C@@H]1[C@H]2F)O[C@H]4n1cnc2c(N)ncnc21 [Compound 37a] , system hSTING HAQ allele (Homo sapiens, UniProt Q86WV6, G230A/H232R/R293Q). 11.2

Specify hSTING Tm Shift HAQ for O=C(Nc1ncnc2c1ncn2[C@@H]1O[C@@H]2CO[P@](=O)(S)O[C@H]3[C@H]4OC[C@]3(CO[P@@](=O)(S)O[C@@H]1[C@@H]2O)O[C@H]4n1cnc2c(NC(=O)c3ccccc3)ncnc21)c1ccccc1 [Compound 11e] , system hSTING HAQ allele (Homo sapiens, UniProt Q86WV6, G230A/H232R/R293Q). 1.5

Specify hSTING Tm Shift HAQ for Nc1ncnc2c1ncn2[C@@H]1O[C@@H]2CO[P@@](=O)(S)O[C@H]3[C@H]4OC[C@]3(CO[P@@](=O)(S)O[C@@H]1[C@@H]2O)O[C@H]4n1cnc2c(N)ncnc21 [Compound 10a] , system hSTING HAQ allele (Homo sapiens, UniProt Q86WV6, G230A/H232R/R293Q). 16.1

Specify hSTING Tm Shift HAQ for Nc1ncnc2c1ncn2[C@@H]1O[C@@H]2CO[P@@](=O)(S)O[C@H]3[C@H]4OC[C@]3(CO[P@](=O)(S)O[C@@H]1[C@@H]2O)O[C@H]4n1cnc2c(N)ncnc21 [Compound 10c] , system hSTING HAQ allele (Homo sapiens, UniProt Q86WV6, G230A/H232R/R293Q). 10.4

Specify hSTING Tm Shift HAQ for Nc1ncnc2c1ncn2[C@@H]1O[C@@H]2CO[P@](=O)(S)O[C@H]3[C@H]4OC[C@]3(CO[P@@](=O)(S)O[C@@H]1[C@@H]2F)O[C@H]4n1cnc2c(N)ncnc21 [Compound 27b] , system hSTING HAQ allele (Homo sapiens, UniProt Q86WV6, G230A/H232R/R293Q). 13.2

Specify hSTING Tm Shift HAQ for CC(C)(C)[Si](C)(C)O[C@H]1[C@H]2O[P@](=O)(S)OC[C@@]34CO[C@@H]([C@H](n5cnc6c(N)ncnc65)O3)[C@@H]4O[P@](=O)(S)OC[C@H]1O[C@H]2n1cnc2c(N)ncnc21 [Compound 11a] , system hSTING HAQ allele (Homo sapiens, UniProt Q86WV6, G230A/H232R/R293Q). 11.6

Specify hSTING Tm Shift HAQ for CC(C)(C)[Si](C)(C)O[C@H]1[C@H]2O[P@](=O)(S)OC[C@@]34CO[C@@H]([C@H](n5cnc6c(N)ncnc65)O3)[C@@H]4O[P@@](=O)(S)OC[C@H]1O[C@H]2n1cnc2c(N)ncnc21 [Compound 11b] , system hSTING HAQ allele (Homo sapiens, UniProt Q86WV6, G230A/H232R/R293Q). 3.3

Specify hSTING Tm Shift HAQ for O=C(Nc1ncnc2c1ncn2[C@@H]1O[C@@H]2CO[P@@](=O)(S)O[C@H]3[C@H]4OC[C@]3(CO[P@](=O)(S)O[C@@H]1[C@@H]2O)O[C@H]4n1cnc2c(NC(=O)c3ccccc3)ncnc21)c1ccccc1 [Compound 11f] , system hSTING HAQ allele (Homo sapiens, UniProt Q86WV6, G230A/H232R/R293Q). 7.5

Specify hSTING Tm Shift HAQ for `Nc1ncnc2c1ncn2[C@@H]1O[C@@]23CO[C@@H]1[C@@H]2O[P@@](=O)(S)OC[C@@]12CO[C@@H]([C@H](n4cnc5c(N)ncnc54)O1)[C@@H]2O[P@](=O)(S)OC3` , system hSTING HAQ allele (Homo sapiens, UniProt Q86WV6, G230A/H232R/R293Q). 18.3

Specify hSTING Tm Shift HAQ for `Nc1ncnc2c1ncn2[C@@H]1O[C@@]23CO[C@@H]1[C@@H]2O[P@](=O)(S)OC[C@@]12CO[C@@H]([C@H](n4cnc5c(N)ncnc54)O1)[C@@H]2O[P@](=O)(S)OC3` , system hSTING HAQ allele (Homo sapiens, UniProt Q86WV6, G230A/H232R/R293Q). 27.6

Specify hSTING Tm Shift HAQ for Nc1ncnc2c1ncn2[C@@H]1O[C@@]23CO[C@@H]1[C@@H]2O[P@@](=O)(S)OC[C@@H]1C[C@@H](O[P@](=O)(S)OC3)[C@H](n2cnc3c(N)ncnc32)O1 [Compound 21b] , system hSTING HAQ allele (Homo sapiens, UniProt Q86WV6, G230A/H232R/R293Q). 10.0

Specify hSTING Tm Shift HAQ for Nc1nc2c(ncn2[C@@H]2O[C@@H]3CO[P@@](=O)(S)O[C@H]4[C@H]5OC[C@]4(CO[P@@](=O)(S)O[C@H]3[C@H]2O)O[C@H]5n2cnc3c(N)ncnc32)c(=O)[nH]1 [Compound 45a] , system hSTING HAQ allele (Homo sapiens, UniProt Q86WV6, G230A/H232R/R293Q). 34.0

Specify hSTING Tm Shift HAQ for `O=C(Nc1ncnc2c1ncn2[C@@H]1O[C@@]23CO[C@@H]1[C@@H]2O[P@](=O)(S)OC[C@@]12CO[C@@H]([C@H](n4cnc5c(NC(=O)c6ccccc6)ncnc54)O1)[C@@H]2O[P@](=O)(S)OC3)c1ccccc1` , system hSTING HAQ allele (Homo sapiens, UniProt Q86WV6, G230A/H232R/R293Q). 5.6

Specify hSTING Tm Shift HAQ for Nc1nc2c(ncn2[C@@H]2O[C@@]34CO[C@@H]2[C@@H]3O[P@@](=O)(S)OC[C@H]2O[C@@H](n3cnc5c(N)ncnc53)[C@H](O)[C@@H]2O[P@](=O)(S)OC4)c(=O)[nH]1 [Compound 33b] , system hSTING HAQ allele (Homo sapiens, UniProt Q86WV6, G230A/H232R/R293Q). 19.3

Specify hSTING Tm Shift HAQ for Nc1ncnc2c1ncn2[C@@H]1O[C@@H]2CO[P@@](=O)(S)O[C@H]3[C@H]4OC[C@]3(CO[P@](=O)(S)O[C@@H]1[C@H]2F)O[C@H]4n1cnc2c(N)ncnc21 [Compound 37c] , system hSTING HAQ allele (Homo sapiens, UniProt Q86WV6, G230A/H232R/R293Q). 5.7

Specify hSTING Tm Shift HAQ for Nc1ncnc2c1ncn2[C@@H]1O[C@@H]2CO[P@](=O)(S)O[C@H]3[C@H]4OC[C@]3(CO[P@](=O)(S)O[C@@H]1[C@@H]2O)O[C@H]4n1cnc2c(N)ncnc21 [Compound 10d] , system hSTING HAQ allele (Homo sapiens, UniProt Q86WV6, G230A/H232R/R293Q). 5.0

Specify hSTING Tm Shift HAQ for Nc1nc2c(ncn2[C@@H]2O[C@@]34CO[C@@H]2[C@@H]3O[P@](=O)(S)OC[C@H]2O[C@@H](n3cnc5c(N)ncnc53)[C@H](O)[C@@H]2O[P@](=O)(S)OC4)c(=O)[nH]1 [Compound 33a, 3′3′-RR-(A)(2′O,4′C-LNA-G)] , system hSTING HAQ allele (Homo sapiens, UniProt Q86WV6, G230A/H232R/R293Q). 29.6

Specify hSTING Tm Shift HAQ for Nc1ncnc2c1ncn2[C@@H]1O[C@@H]2CO[P@](=O)(S)O[C@H]3[C@H]4OC[C@]3(CO[P@](=O)(S)O[C@@H]1[C@H]2F)O[C@H]4n1cnc2c(N)ncnc21 [Compound 37d] , system hSTING HAQ allele (Homo sapiens, UniProt Q86WV6, G230A/H232R/R293Q). 2.4
